// IC50 lookup, one value per entry
target: DNA dC->dU-editing enzyme APOBEC-3G (Homo sapiens, UniProt Q9HC16); assay: Dose Response confirmation of small molecule APOBEC3G DNA Deaminase Inhibitors via a fluorescence-based single-stranded DNA deaminase assay. [Related pubchem assays (depositor defined):AID493012, AID493028]; type: functional
Sequence (Q9HC16 whole entry): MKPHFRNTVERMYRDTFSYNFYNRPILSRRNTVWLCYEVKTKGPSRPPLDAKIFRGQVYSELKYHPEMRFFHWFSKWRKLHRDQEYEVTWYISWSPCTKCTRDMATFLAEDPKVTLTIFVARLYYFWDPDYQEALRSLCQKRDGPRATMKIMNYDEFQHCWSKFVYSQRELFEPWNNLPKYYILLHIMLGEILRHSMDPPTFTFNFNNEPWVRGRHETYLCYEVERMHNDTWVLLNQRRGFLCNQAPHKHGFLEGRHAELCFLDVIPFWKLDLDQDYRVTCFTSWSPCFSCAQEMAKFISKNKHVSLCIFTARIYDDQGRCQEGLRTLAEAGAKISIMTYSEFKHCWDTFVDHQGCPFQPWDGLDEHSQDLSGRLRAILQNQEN
Calls of active or inactive are those of the source. No stated cut-off is given here; in the data, actives have a measured IC50 and inactives only a lower limit.
outcome-measure: IC50

COc1ccc(OC)c(C2CC(=O)N3CN(c4ccccc4)CSC3=C2C#N)c1 (stereo not given)    11.8 µM (active)
CCOC(=O)c1c(NC(=O)CSc2nnnn2-c2ccc(OC)cc2)sc(C)c1C    54.7 µM (active)
O=C(Nc1cc(S(=O)(=O)N2CCOCC2)ccc1N1CCCCC1)c1cc(-c2ccccn2)nc2ccccc12    92.6 µM (active)
Cc1cc(-c2nnc(S)n2/N=C/C=C/c2ccccc2)[nH]n1    2.35 µM (active)
Cc1nc([N+](=O)[O-])c(SCc2ccc(O)c([N+](=O)[O-])c2)[nH]1    77.9 µM (active)
